What log10(kcat) was measured for each of the following?
Test system: Escherichia coli
Assay: Activity of Escherichia coli CF0042 beta-lactamase TEM-35 by microacidimetric method
Note the log scale: values are log10 of kcat expressed in s⁻¹.

CC1(C)S[C@@H]2[C@H](NC(=O)[C@H](N)c3ccc(O)cc3)C(=O)N2[C@H]1C(=O)O : 2.95
CC1(C)S[C@@H]2[C@H](NC(=O)[C@H](C(=O)O)c3ccsc3)C(=O)N2[C@H]1C(=O)O : 2.10
CC1(C)S[C@@H]2[C@H](NC(=O)Cc3ccccc3)C(=O)N2[C@H]1C(=O)O : 3.02
CCN1CCN(C(=O)N[C@@H](C(=O)N[C@@H]2C(=O)N3[C@@H]2SC(C)(C)[C@@H]3C(=O)O)c2ccccc2)C(=O)C1=O : 2.98

Next:
GET /values?readout=log10(kcat)&item= "CC(=O)OCC1=C(C(=O)O)N2C(=O)[C@@H](NC(=O)Cc3cccs3)[C@H]2SC1"
1.72

----------
What Km was measured for each of the following?
Tested on: Escherichia coli
Assay: Activity of Escherichia coli DH5alpha beta-lactamase TEM-12 by microacidimetric method
Give bare numbers, in µM.

CC(C)(O/N=C(\C(=O)N[C@@H]1C(=O)N2C(C(=O)[O-])=C(C[n+]3ccccc3)CS[C@H]12)c1csc(N)n1)C(=O)O : 254

Here are 3 molecules. What values of Km were reported for them?
1. CC(=O)OCC1=C(C(=O)O)N2C(=O)[C@@H](NC(=O)Cc3cccs3)[C@H]2SC1
2. CO/N=C(\C(=O)N[C@@H]1C(=O)N2C(C(=O)O)=C(COC(C)=O)CS[C@H]12)c1csc(N)n1
3. CCN1CCN(C(=O)N[C@@H](C(=O)N[C@@H]2C(=O)N3[C@@H]2SC(C)(C)[C@@H]3C(=O)O)c2ccccc2)C(=O)C1=O

1: 327; 2: 320; 3: 15

Here are 2 molecules. What values of Km were reported for them?
1. CC1(C)S[C@@H]2[C@H](NC(=O)[C@H](C(=O)O)c3ccsc3)C(=O)N2[C@H]1C(=O)O
2. CC1(C)S[C@@H]2[C@H](NC(=O)Cc3ccccc3)C(=O)N2[C@H]1C(=O)O

1. 12
2. 7

----------
Tested on: Escherichia coli
Experiment: Activity of Escherichia coli CF0042 beta-lactamase TEM-35 by microacidimetric method
parameter: kcat

CO/N=C(\C(=O)N[C@@H]1C(=O)N2C(C(=O)O)=C(COC(C)=O)CS[C@H]12)c1csc(N)n1 : < 0.1 s⁻¹
CC(C)(O/N=C(\C(=O)N[C@@H]1C(=O)N2C(C(=O)[O-])=C(C[n+]3ccccc3)CS[C@H]12)c1csc(N)n1)C(=O)O : < 0.1 s⁻¹

Next:
For Escherichia coli, provide kcat of "C[C@H]1[C@H](NC(=O)/C(=N\OC(C)(C)C(=O)O)c2csc(N)n2)C(=O)N1S(=O)(=O)O" please.
< 0.1 s⁻¹

Provenance of the data: ChEMBL document CHEMBL1137638
